Assay: Antiinflammatory activity against human neutrophils assessed as inhibition of fMLP/CB-induced superoxide anion generation
Assay type: functional, cell-based
Conditions: Neutrophil
Endpoint name: IC50
The answer should read as a number with its unit following.

> print(dat)
                                   compound  endpoint.name  experimental.value
1  COc1ccc(CCN(C)C(=O)/C=C/c2ccc(O)cc2)cc1 [AILANTHAMIDE]           IC50          3.71 µg/mL
2  COc1cc(C(=O)C(CO)c2ccc(O)c(OC)c2)ccc1O (stereo unspecified)           IC50          5.34 µg/mL
3    COc1c(O)ccc2c1cnc1c3cc4c(cc3ccc21)OCO4           IC50          1.29 µg/mL
4                    COc1cc2ccc(=O)oc2cc1OC           IC50          8.25 µg/mL
5               CC(=O)/C=C/C=C/C(=O)NCC(C)C           IC50           4.2 µg/mL

Consider the additional compound presented here.
Task item: Returns the measured IC50 for the input compound. Input: `CC1(C)C=Cc2cc3ccc(=O)oc3cc2O1`
Reply: 4.1 µg/mL
